measurement-target: Aldehyde dehydrogenase, dimeric NADP-preferring (Homo sapiens) (UniProt P30838)
Sequence (P30838 whole entry): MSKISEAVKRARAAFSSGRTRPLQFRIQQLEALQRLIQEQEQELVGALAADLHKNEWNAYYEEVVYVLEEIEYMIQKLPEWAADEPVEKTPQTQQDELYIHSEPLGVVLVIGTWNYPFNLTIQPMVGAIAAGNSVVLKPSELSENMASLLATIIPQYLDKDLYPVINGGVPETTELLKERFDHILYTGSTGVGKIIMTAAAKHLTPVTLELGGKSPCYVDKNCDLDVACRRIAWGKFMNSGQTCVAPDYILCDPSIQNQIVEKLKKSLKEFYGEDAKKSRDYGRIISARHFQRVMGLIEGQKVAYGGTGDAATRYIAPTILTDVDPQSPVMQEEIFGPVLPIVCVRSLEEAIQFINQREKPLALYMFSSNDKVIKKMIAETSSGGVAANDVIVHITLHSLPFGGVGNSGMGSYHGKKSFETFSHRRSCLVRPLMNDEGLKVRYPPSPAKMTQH
assay-protocol: Inhibition of recombinant human ALDH3A1 using benzaldehyde as substrate at 100 uM preincubated for 2 mins with NAD+ followed by substrate addition by UV-Vis spectrophotometric analysis
Active and inactive are the calls of the source. No cut-off for these calls is given here.
test-readout: inhibition

compound	inhibition
Cn1c(=O)c2c(ncn2C)n(C)c1=O	inactive
CC(C)CCn1c(CN2CCOCC2)nc2c1c(=O)n(C)c(=O)n2C	inactive
CCCCn1c(CN2CCN(c3ccc(OC)cc3)CC2)nc2c1c(=O)n(C)c(=O)n2C	inactive
CC(C)CCn1c(CN(C)Cc2ccccc2)nc2c1c(=O)n(C)c(=O)n2C	inactive
CCC1CCCCN1Cc1nc2c(c(=O)n(C)c(=O)n2C)n1Cc1cccc(C)c1 (stereo not drawn)	inactive

Case Cn1c(=O)c2c(nc(N3CCOCC3)n2Cc2ccccc2F)n(C)c1=O , Aldehyde dehydrogenase, dimeric NADP-preferring (Homo sapiens) (UniProt P30838), inhibition recorded as inactive

Case Cn1c(=O)c2[nH]cnc2n(C)c1=O , Aldehyde dehydrogenase, dimeric NADP-preferring (Homo sapiens) (UniProt P30838), inhibition recorded as inactive

Case CCCCn1c(Oc2ccc(C(=O)OC)cc2)nc2c1c(=O)n(C)c(=O)n2C , Aldehyde dehydrogenase, dimeric NADP-preferring (Homo sapiens) (UniProt P30838), inhibition recorded as inactive

Case CCN1CCN(Cc2nc3c(c(=O)n(C)c(=O)n3C)n2CCC(C)C)CC1 , Aldehyde dehydrogenase, dimeric NADP-preferring (Homo sapiens) (UniProt P30838), inhibition recorded as inactive

Case CC(C)CCn1c(CN2CCC(C)CC2)nc2c1c(=O)n(C)c(=O)n2C , Aldehyde dehydrogenase, dimeric NADP-preferring (Homo sapiens) (UniProt P30838), inhibition recorded as inactive

---

measurement-target: Retinaldehyde dehydrogenase 3 (Homo sapiens)
Sequence (P47895 whole entry): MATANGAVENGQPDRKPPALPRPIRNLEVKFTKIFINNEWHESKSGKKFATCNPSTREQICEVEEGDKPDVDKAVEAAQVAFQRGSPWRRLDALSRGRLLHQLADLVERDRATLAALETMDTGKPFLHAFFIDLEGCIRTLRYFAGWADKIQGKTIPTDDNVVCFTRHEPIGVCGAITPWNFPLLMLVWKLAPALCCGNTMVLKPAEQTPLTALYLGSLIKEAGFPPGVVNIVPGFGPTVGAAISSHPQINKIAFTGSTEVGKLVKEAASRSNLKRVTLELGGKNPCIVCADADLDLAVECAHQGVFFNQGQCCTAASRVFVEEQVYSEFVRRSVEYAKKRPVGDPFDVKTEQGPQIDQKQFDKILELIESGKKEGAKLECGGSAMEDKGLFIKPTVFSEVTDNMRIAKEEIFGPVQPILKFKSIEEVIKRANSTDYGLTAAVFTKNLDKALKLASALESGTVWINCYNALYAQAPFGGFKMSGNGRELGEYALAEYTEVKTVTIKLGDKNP
assay-protocol: Inhibition of recombinant human ALDH1A3 using propionaldehyde as substrate preincubated for 2 mins with NAD+ followed by substrate addition by UV-Vis spectrophotometric analysis
pIC50: −log10 of the molar value.
Listed here: items and their measured pIC50.

// solved cases for pIC50 follow
smiles-string	pIC50
CC(C)CCn1c(CN2CCC(C)CC2)nc2c1c(=O)n(C)c(=O)n2C	< 4.00
CCCCn1c(CN2CCN(c3ccc(OC)cc3)CC2)nc2c1c(=O)n(C)c(=O)n2C	< 4.00

# context switch: different molecule, same pIC50
Lab note: measured pIC50 of CCCCn1c(CN2CCN(c3cccc(Cl)c3)CC2)nc2c1c(=O)n(C)c(=O)n2C was < 4.70
